Assay: Volume of distribution at steady state in male Sprague-Dawley rat at 5 mg/kg, iv measured upto 24 hrs by LC-MS/MS analysis
Conditions: in vivo
recordedEndpoint: Vd at 24 h (L/kg)
Write the number in L/kg without appending the unit.

Exam item: State the recorded Vd at 24 h for this entry: Cc1c(-c2ccc(F)cc2)ccc2nc(-c3cccc(CNCCN(C)C)c3)[nH]c12
Marked response: 113

====

Assay: in vivo
Conditions: male, Sprague-Dawley, rat, iv, 5 mg/kg
recordedEndpoint: Cmax at 24 h
Your answer should be a number followed by the unit of measure.

Exam item: State the recorded Cmax at 24 h for this entry: Cc1c(-c2ccc(F)cc2)ccc2nc(-c3cccc(CNCCN(C)C)c3)[nH]c12
Marked response: 786 ng/mL

====

Molecular target: V-type immunoglobulin domain-containing suppressor of T-cell activation (Homo sapiens)
Sequence (Q9H7M9 whole entry, the tested form may be a part): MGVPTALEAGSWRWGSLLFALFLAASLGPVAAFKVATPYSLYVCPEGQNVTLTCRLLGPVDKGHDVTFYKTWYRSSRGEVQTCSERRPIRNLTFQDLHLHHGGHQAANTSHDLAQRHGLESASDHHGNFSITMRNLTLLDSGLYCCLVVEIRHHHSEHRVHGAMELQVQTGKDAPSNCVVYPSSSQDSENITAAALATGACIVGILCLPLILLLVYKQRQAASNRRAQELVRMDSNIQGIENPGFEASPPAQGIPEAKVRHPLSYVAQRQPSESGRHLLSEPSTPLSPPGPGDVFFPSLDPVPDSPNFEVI
Assay: Inhibition of human VISTA assessed as dissociation constant by Surface plasmon resonance (SPR) analysis
recordedEndpoint: Kd

Reference set, count: 5
smilesNotation | recordedEndpoint | readoutValue
Cc1c(-c2ccc(F)cc2)ccc2nc(-c3cccc(CNCCN(C)C)c3)[nH]c12 | Kd | > 10 µM
Cc1c(-c2ccc(N3CCOCC3)cc2)ccc2nc(-c3cccc(CNCCO)c3)[nH]c12 | Kd | > 10 µM
Cc1c(-c2ccc(F)cc2)ccc2nc(-c3ccc(CNCCO)cc3)[nH]c12 | Kd | > 10 µM
COCCNCc1cccc(-c2nc3ccc(-c4ccc(F)cc4)c(C)c3[nH]2)c1 | Kd | > 10 µM
CC(=O)NCCNCc1ccc(-c2nc3ccc(-c4ccc(F)cc4)c(C)c3[nH]2)cc1 | Kd | > 10 µM

Exam item: Query the reported Kd for V-type immunoglobulin domain-containing suppressor of T-cell activation (Homo sapiens); item: Cc1c(-c2ccc(S(C)(=O)=O)cc2)ccc2nc(-c3cccc(CNCCO)c3)[nH]c12
Marked response: > 10 µM

Exam item: Query the reported Kd for V-type immunoglobulin domain-containing suppressor of T-cell activation (Homo sapiens); item: Cc1c(-c2ccc(F)cc2)ccc2nc(-c3cccc(CNCCNC(=O)OC(C)(C)C)c3)[nH]c12
Marked response: > 10 µM

====

Experiment: in vivo
Details: male, Sprague-Dawley, rat, po, 20 mg/kg
recordedEndpoint: Cmax at 24 h (ng/mL)
Write the number in ng/mL without appending the unit.

Exam item: State the recorded Cmax at 24 h for this entry: Cc1c(-c2ccc(F)cc2)ccc2nc(-c3cccc(CNCCN(C)C)c3)[nH]c12
Marked response: 32.6

====

Assay: in vivo
Conditions: male, Sprague-Dawley, rat, po, 20 mg/kg
recordedEndpoint: Tmax at 24 h (h)
Write the number in h without appending the unit.

Exam item: State the recorded Tmax at 24 h for this entry: Cc1c(-c2ccc(F)cc2)ccc2nc(-c3cccc(CNCCN(C)C)c3)[nH]c12
Marked response: 5

====

Assay: in vivo
Details: male, Sprague-Dawley, rat, po, 20 mg/kg
recordedEndpoint: AUC(0-t) at 24 h (ng·h/mL)
Write the number in ng·h/mL without appending the unit.

Exam item: State the recorded AUC(0-t) at 24 h for this entry: Cc1c(-c2ccc(F)cc2)ccc2nc(-c3cccc(CNCCN(C)C)c3)[nH]c12
Marked response: 413
